Data credit: patent US20220362249A1

# assay.details: Food effect on administration of sepiapterin: plasma sepiapterin and BH4 concentrations, fasted vs fed
# Assay type: in vivo, human
# run.parameters: human, plasma, oral, 10 mg/kg, fed (high-fat meal); sepiapterin 10 mg/kg oral; 1 h; read-out: Concentration in Plasma, Mean

compound	concentration at 1 h
C[C@H](O)[C@H](O)[C@H]1CNc2nc(N)[nH]c(=O)c2N1 [BH4, Tetrahydrobiopterin]	166 nM
C[C@H](O)C(=O)C1=Nc2c(nc(N)[nH]c2=O)NC1 [sepiapterin, Sepiapterin]	2.38 nM

====

# assay.details: Pharmacokinetic analysis of multiple doses of sepiapterin (once daily for 7 days, fed subjects)
# Assay type: in vivo, human
# run.parameters: human, plasma; Day 1; sepiapterin 5 mg/kg once daily; fed
measurement.kind: AUC(0-inf) (ng·h/mL)

compound	measurement.unit	numeric.readout
C[C@H](O)[C@H](O)[C@H]1CNc2nc(N)[nH]c(=O)c2N1 [BH4, Tetrahydrobiopterin]	ng·h/mL	1010

====

# assay.details: Food effect on administration of sepiapterin: plasma sepiapterin and BH4 concentrations, fasted vs fed
# Assay type: in vivo, human
# run.parameters: human, plasma, oral, 10 mg/kg, fed (high-fat meal); sepiapterin 10 mg/kg oral; 0 h (predose); read-out: Concentration in Plasma, Mean
# Description: Method: Subjects received 2 oral doses of sepiapterin (10 mg/kg) separated by 1 week in a fasted and fed state. […] Sampling for PK analysis occurred predose on Days 1 and 8 (within 30 minutes before dosing) and 0.5 hr, 1 hr, 2 hr, 4 hr, 8 hr, 12 hr, and 24 hr after the doses on Days 1 and 8. The blood concentrations of sepiapterin and BH4 were analyzed by MNG Labs.

molecule	measurement.unit	concentration at 0 h
C[C@H](O)[C@H](O)[C@H]1CNc2nc(N)[nH]c(=O)c2N1 [BH4, Tetrahydrobiopterin]	nM	8.43
C[C@H](O)C(=O)C1=Nc2c(nc(N)[nH]c2=O)NC1 [sepiapterin, Sepiapterin]	nM	0

====

# assay.details: Pharmacokinetic analysis of multiple doses of sepiapterin (once daily for 7 days, fed subjects)
# Assay type: in vivo, human
# run.parameters: human, plasma, 5 mg/kg, Day 1; sepiapterin 5 mg/kg once daily; fed
# Description: Methods: Three cohorts of eight fed subjects each were randomized to receive once-daily sepiapterin or placebo for 7 days in a 6:2 ratio. A sentinel dose strategy was also used for administration of the highest sepiapterin dose.

compound	measurement.unit	Tmax
C[C@H](O)[C@H](O)[C@H]1CNc2nc(N)[nH]c(=O)c2N1 [BH4, Tetrahydrobiopterin]	h	4

====

This listing pairs molecules with measured concentration at 0 h.
# assay.details: Food effect on administration of sepiapterin: plasma sepiapterin and BH4 concentrations, fasted vs fed
# Assay type: in vivo, human
# run.parameters: human, plasma, oral, 10 mg/kg, fed (high-fat meal); sepiapterin 10 mg/kg oral; 0 h (predose); read-out: Concentration in Plasma, Median
measurement.kind: concentration at 0 h (nM)

molecule	numeric.readout
C[C@H](O)[C@H](O)[C@H]1CNc2nc(N)[nH]c(=O)c2N1 [BH4, Tetrahydrobiopterin]	8.5
C[C@H](O)C(=O)C1=Nc2c(nc(N)[nH]c2=O)NC1 [sepiapterin, Sepiapterin]	0

====

# assay.details: Food effect on administration of sepiapterin: plasma sepiapterin and BH4 concentrations, fasted vs fed
# Format: in vivo, human
# run.parameters: human, plasma, oral, 10 mg/kg, fed (high-fat meal); sepiapterin 10 mg/kg oral; 8 h; read-out: Concentration in Plasma, Minimum

molecule	measurement.unit	concentration at 8 h
C[C@H](O)C(=O)C1=Nc2c(nc(N)[nH]c2=O)NC1 [sepiapterin, Sepiapterin]	nM	0
C[C@H](O)[C@H](O)[C@H]1CNc2nc(N)[nH]c(=O)c2N1 [BH4, Tetrahydrobiopterin]	nM	253
